test.system: Coagulation factor X/antithrombin III (Homo sapiens) (UniProt P01008+P00742)
experiment.summary: Inhibition of human antithrombin 3/factor 10a assessed as 25 x 10^-6M CBS31.39 substrate hydrolysis at 1 x 10^-3M
Format: protein-complex assay
experimental.readout: inhibition (%)

chemical.smiles	value.measured
C[C@H]1O[C@@H](OC[C@@H]2O[C@H](Oc3c(-c4ccc(OCCOS(=O)(=O)O)c(OCCOS(=O)(=O)O)c4)oc4cc(OCCOS(=O)(=O)O)cc(O)c4c3=O)[C@@H](OS(=O)(=O)O)[C@H](OS(=O)(=O)O)[C@H]2OS(=O)(=O)O)[C@@H](OS(=O)(=O)O)[C@@H](OS(=O)(=O)O)[C@@H]1OS(=O)(=O)O	47.6
C[C@H]1O[C@@H](OC[C@@H]2O[C@H](Oc3c(-c4ccc(OS(=O)(=O)O)c(OS(=O)(=O)O)c4)oc4cc(OS(=O)(=O)O)cc(OS(=O)(=O)O)c4c3=O)[C@@H](OS(=O)(=O)O)[C@H](OS(=O)(=O)O)[C@H]2OS(=O)(=O)O)[C@@H](OS(=O)(=O)O)[C@@H](OS(=O)(=O)O)[C@@H]1OS(=O)(=O)O	30.5
COc1ccc([C@@H]2CC(=O)c3c(O)cc(O[C@@H]4O[C@H](CO[C@@H]5O[C@@H](C)[C@H](OS(=O)(=O)O)[C@@H](OS(=O)(=O)O)[C@H]5OS(=O)(=O)O)[C@@H](OS(=O)(=O)O)[C@H](OS(=O)(=O)O)[C@H]4OS(=O)(=O)O)cc3O2)cc1O	40.2
COc1ccc(-c2cc(=O)c3c(O)cc(O[C@@H]4O[C@H](CO[C@@H]5O[C@@H](C)[C@H](OS(=O)(=O)O)[C@@H](OS(=O)(=O)O)[C@H]5OS(=O)(=O)O)[C@@H](OS(=O)(=O)O)[C@H](OS(=O)(=O)O)[C@H]4OS(=O)(=O)O)cc3o2)cc1O	22.6

====

Reported inhibition values for a set of compounds
test.system: Coagulation factor X/antithrombin III (Homo sapiens) (UniProt P01008+P00742)
experiment.summary: Inhibition of human antithrombin 3/factor 10a assessed as 25 x 10^-6M CBS31.39 substrate hydrolysis at 0.5 x 10^-3M
Type: protein-complex assay

chemical.smiles	inhibition
C[C@H]1O[C@@H](OC[C@@H]2O[C@H](Oc3c(-c4ccc(OCCOS(=O)(=O)O)c(OCCOS(=O)(=O)O)c4)oc4cc(OCCOS(=O)(=O)O)cc(O)c4c3=O)[C@@H](OS(=O)(=O)O)[C@H](OS(=O)(=O)O)[C@H]2OS(=O)(=O)O)[C@@H](OS(=O)(=O)O)[C@@H](OS(=O)(=O)O)[C@@H]1OS(=O)(=O)O	28.1%
C[C@H]1O[C@@H](OC[C@@H]2O[C@H](Oc3c(-c4ccc(OS(=O)(=O)O)c(OS(=O)(=O)O)c4)oc4cc(OS(=O)(=O)O)cc(OS(=O)(=O)O)c4c3=O)[C@@H](OS(=O)(=O)O)[C@H](OS(=O)(=O)O)[C@H]2OS(=O)(=O)O)[C@@H](OS(=O)(=O)O)[C@@H](OS(=O)(=O)O)[C@@H]1OS(=O)(=O)O	29.3%
COc1ccc([C@@H]2CC(=O)c3c(O)cc(O[C@@H]4O[C@H](CO[C@@H]5O[C@@H](C)[C@H](OS(=O)(=O)O)[C@@H](OS(=O)(=O)O)[C@H]5OS(=O)(=O)O)[C@@H](OS(=O)(=O)O)[C@H](OS(=O)(=O)O)[C@H]4OS(=O)(=O)O)cc3O2)cc1O	30.5%

====

Each entry below carries its recorded inhibition.
test.system: Coagulation factor X/antithrombin III (Homo sapiens) (UniProt P01008+P00742)
experiment.summary: Inhibition of human antithrombin 3/factor 10a assessed as 25 x 10^-6M CBS31.39 substrate hydrolysis at 2 x 10^-3M
Assay type: protein-complex assay
experimental.readout: inhibition (%)

chemical.smiles	value.measured
C[C@H]1O[C@@H](OC[C@@H]2O[C@H](Oc3c(-c4ccc(OCCOS(=O)(=O)O)c(OCCOS(=O)(=O)O)c4)oc4cc(OCCOS(=O)(=O)O)cc(O)c4c3=O)[C@@H](OS(=O)(=O)O)[C@H](OS(=O)(=O)O)[C@H]2OS(=O)(=O)O)[C@@H](OS(=O)(=O)O)[C@@H](OS(=O)(=O)O)[C@@H]1OS(=O)(=O)O	56
COc1ccc([C@@H]2CC(=O)c3c(O)cc(O[C@@H]4O[C@H](CO[C@@H]5O[C@@H](C)[C@H](OS(=O)(=O)O)[C@@H](OS(=O)(=O)O)[C@H]5OS(=O)(=O)O)[C@@H](OS(=O)(=O)O)[C@H](OS(=O)(=O)O)[C@H]4OS(=O)(=O)O)cc3O2)cc1O	49.6
C[C@H]1O[C@@H](OC[C@@H]2O[C@H](Oc3c(-c4ccc(OS(=O)(=O)O)c(OS(=O)(=O)O)c4)oc4cc(OS(=O)(=O)O)cc(OS(=O)(=O)O)c4c3=O)[C@@H](OS(=O)(=O)O)[C@H](OS(=O)(=O)O)[C@H]2OS(=O)(=O)O)[C@@H](OS(=O)(=O)O)[C@@H](OS(=O)(=O)O)[C@@H]1OS(=O)(=O)O	31.4
COc1ccc(-c2cc(=O)c3c(O)cc(O[C@@H]4O[C@H](CO[C@@H]5O[C@@H](C)[C@H](OS(=O)(=O)O)[C@@H](OS(=O)(=O)O)[C@H]5OS(=O)(=O)O)[C@@H](OS(=O)(=O)O)[C@H](OS(=O)(=O)O)[C@H]4OS(=O)(=O)O)cc3o2)cc1O	43.7

====

test.system: UniProt P00742
Sequence (P00742 41-179 limits assumed): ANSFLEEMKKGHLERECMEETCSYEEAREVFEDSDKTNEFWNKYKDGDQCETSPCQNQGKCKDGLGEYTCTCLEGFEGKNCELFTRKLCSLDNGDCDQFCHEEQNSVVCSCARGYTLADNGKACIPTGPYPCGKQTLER
Sequence (P00742 235-488 limits assumed): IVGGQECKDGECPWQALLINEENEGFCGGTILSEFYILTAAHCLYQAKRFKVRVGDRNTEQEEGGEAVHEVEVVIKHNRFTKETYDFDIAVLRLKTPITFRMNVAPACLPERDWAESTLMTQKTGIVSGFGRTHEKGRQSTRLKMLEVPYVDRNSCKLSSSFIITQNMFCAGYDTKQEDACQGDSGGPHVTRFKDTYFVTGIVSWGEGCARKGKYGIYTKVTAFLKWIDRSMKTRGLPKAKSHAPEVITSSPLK
experiment.summary: Inhibition of human factor 10a assessed as 125 x 10^-6M chromogenic TH substrate hydrolysis at 2 x 10^-3M
// reported inhibition for each item listed

chemical.smiles	inhibition
COc1ccc(-c2cc(=O)c3c(O)cc(O[C@@H]4O[C@H](CO[C@@H]5O[C@@H](C)[C@H](OS(=O)(=O)O)[C@@H](OS(=O)(=O)O)[C@H]5OS(=O)(=O)O)[C@@H](OS(=O)(=O)O)[C@H](OS(=O)(=O)O)[C@H]4OS(=O)(=O)O)cc3o2)cc1O	23.4%
C[C@H]1O[C@@H](OC[C@@H]2O[C@H](Oc3c(-c4ccc(OS(=O)(=O)O)c(OS(=O)(=O)O)c4)oc4cc(OS(=O)(=O)O)cc(OS(=O)(=O)O)c4c3=O)[C@@H](OS(=O)(=O)O)[C@H](OS(=O)(=O)O)[C@H]2OS(=O)(=O)O)[C@@H](OS(=O)(=O)O)[C@@H](OS(=O)(=O)O)[C@@H]1OS(=O)(=O)O	42.7%
C[C@H]1O[C@@H](OC[C@@H]2O[C@H](Oc3c(-c4ccc(OCCOS(=O)(=O)O)c(OCCOS(=O)(=O)O)c4)oc4cc(OCCOS(=O)(=O)O)cc(O)c4c3=O)[C@@H](OS(=O)(=O)O)[C@H](OS(=O)(=O)O)[C@H]2OS(=O)(=O)O)[C@@H](OS(=O)(=O)O)[C@@H](OS(=O)(=O)O)[C@@H]1OS(=O)(=O)O	53.3%

Value source: ChEMBL document CHEMBL1649091
